- System: Plasmodium falciparum
- measurement_protocol: GSK_TCMDC: Inhibition of Plasmodium falciparum Dd2 in whole red blood cells, using parasite LDH activity as an index of growth. Test compounds present at 2uM
- Type: functional
Label criterion met when Inhibition is at or above 90%; anything below gets criterion not met.

Example results:
INSERT INTO results (compound, label_class) VALUES
  ('CCCCCCCc1c(C)nc2ccccc2c1O', 'criterion met'),
  ('CN1CCN(c2cc(NC(=O)c3ccc(-c4ccc(Cl)cc4)cc3)ccc2Cl)CC1', 'criterion not met'),
  ('CN(C)c1ccc(OCCCCCCOc2ccccc2)cc1.Cl', 'criterion not met'),
  ('CN1CCN(Cc2ccc(-c3cc4nccc(Nc5ccc(Oc6ccccc6)cc5)c4cc3Cl)o2)CC1', 'criterion met'),
  ('Cn1nc(-c2ccc(CN[C@@H]3CCc4ccc(O)cc43)cc2)c2cnc(NCCCN3CCCC3)nc21', 'criterion not met');

Entry CN(Cc1ccncc1)C(Cc1ccccc1)C1CCN(Cc2ccc(O)c(Cl)c2)CC1 (stereo not given) : is its Inhibition no less than 90%? criterion met
